Target of assay: Bem1-2, P29366
Sequence (P29366 139-227): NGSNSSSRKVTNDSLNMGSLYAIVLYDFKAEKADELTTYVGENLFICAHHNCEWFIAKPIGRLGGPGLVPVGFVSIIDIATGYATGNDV
Protocol summary: SPOT array
Condition: median of control spots 4347
Measure name: SPOT intensity

FHLNPKRSAVLYDRP :: 308

A: PPLPRAPPVPPATFE
B: NNQRRKPLLLNIGDH
Query: Which of the two items, A and B , has the greater recorded SPOT intensity? Mark your answer with the label of the selected entry.
Response: A
